This collection of values is drawn from PubChem BioAssay (NCATS).

Method: Quantitative high throughput screen for delayed death inhibitors of the malarial parasite plastid, 48 hour incubation (AID 488752); further: nearly all actives have a fitted effect of over 65% in size
Experimental Context: Plasmodium falciparum growth; series mostly up to 28.7 µM
Inconclusive results are not listed. Activity calls are given as the source filed them. The call rests on the fitted dose curve; in most records, active means well fitted inhibition curve with a large enough effect; inconclusive means small, poorly fitted or top-dose-only effect, or effect the other way; inactive means flat fitted curve, though single readings scatter.
Outcomes: 1 (yes) (active), 0 (no) (inactive)

>  <Compound>
NCCNC(=O)c1ccc(Cl)cc1

>  <Class Assignment>
0 (no)

$$$$
>  <Compound>
NC(=NCCC[C@H](N)C(=O)O)NO

>  <Class Assignment>
0 (no)

$$$$
>  <Compound>
NC(=O)C1=CN(C2OC(COP(=O)(O)OP(=O)(O)OC[C@H]3O[C@@H](n4cnc5c(N)ncnc54)[C@H](OP(=O)(O)O)[C@H]3O)C(O)C2O)C=CC1 (stereo partly specified)

>  <Class Assignment>
0 (no)

$$$$
>  <Compound>
COc1cc2c(cc1OC)C(c1ccccc1)CN(C)CC2 (stereo unspecified)

>  <Class Assignment>
0 (no)

$$$$
>  <Compound>
COC(=O)c1c(-c2cc(OC)c(OC)c(OC)c2)c2ccc(OCc3ccccn3)cc2c(=O)n1-c1ccc(N)cc1

>  <Class Assignment>
1 (yes)

$$$$
>  <Compound>
CNC(=O)[C@H]1O[C@@H](n2cnc3c(NCc4ccc(N)cc4)ncnc32)[C@H](O)[C@H]1O

>  <Class Assignment>
0 (no)

$$$$
>  <Compound>
Nc1ncnc2c1nc(Sc1ccc(Cl)cc1)n2[C@H]1O[C@@H]2COP(=O)(O)O[C@H]2[C@@H]1O

>  <Class Assignment>
0 (no)

$$$$
>  <Compound>
CN1C(=O)CCC1c1cccnc1 (stereo unspecified)

>  <Class Assignment>
0 (no)

$$$$
>  <Compound>
Nc1nc(SCc2ccc([N+](=O)[O-])cc2)c2ncn([C@@H]3O[C@H](CO)[C@H](O)[C@H]3O)c2n1

>  <Class Assignment>
0 (no)

$$$$
>  <Compound>
Cc1cn([C@H]2C[C@@H](N=[N+]=[N-])[C@@H](CO)O2)c(=O)[nH]c1=O

>  <Class Assignment>
0 (no)

$$$$
>  <Compound>
COc1ccc2c(c1)c(CC(=O)O)c(C)n2Cc1ccc(F)cc1

>  <Class Assignment>
0 (no)

$$$$
